biological target: α1β3γ2S receptors (Rattus norvegicus, UniProt P62813+P63079); experiment: IGABA enhancement; format: cell-based; settings: α1β3γ2S, GABA EC3-7, Xenopus oocytes
Sequence (P63079 26-473): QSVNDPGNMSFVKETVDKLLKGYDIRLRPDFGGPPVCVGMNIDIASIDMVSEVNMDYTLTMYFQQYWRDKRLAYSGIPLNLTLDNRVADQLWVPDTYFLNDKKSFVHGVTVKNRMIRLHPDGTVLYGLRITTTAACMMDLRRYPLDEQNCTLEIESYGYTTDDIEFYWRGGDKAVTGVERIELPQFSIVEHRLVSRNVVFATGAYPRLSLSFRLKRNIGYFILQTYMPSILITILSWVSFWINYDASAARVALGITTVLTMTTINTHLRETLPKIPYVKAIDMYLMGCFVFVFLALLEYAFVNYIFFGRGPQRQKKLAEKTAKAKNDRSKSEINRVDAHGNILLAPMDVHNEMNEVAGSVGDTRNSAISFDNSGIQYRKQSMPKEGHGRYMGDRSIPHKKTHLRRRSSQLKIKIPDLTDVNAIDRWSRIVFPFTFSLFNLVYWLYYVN
Sequence (P62813 28-455): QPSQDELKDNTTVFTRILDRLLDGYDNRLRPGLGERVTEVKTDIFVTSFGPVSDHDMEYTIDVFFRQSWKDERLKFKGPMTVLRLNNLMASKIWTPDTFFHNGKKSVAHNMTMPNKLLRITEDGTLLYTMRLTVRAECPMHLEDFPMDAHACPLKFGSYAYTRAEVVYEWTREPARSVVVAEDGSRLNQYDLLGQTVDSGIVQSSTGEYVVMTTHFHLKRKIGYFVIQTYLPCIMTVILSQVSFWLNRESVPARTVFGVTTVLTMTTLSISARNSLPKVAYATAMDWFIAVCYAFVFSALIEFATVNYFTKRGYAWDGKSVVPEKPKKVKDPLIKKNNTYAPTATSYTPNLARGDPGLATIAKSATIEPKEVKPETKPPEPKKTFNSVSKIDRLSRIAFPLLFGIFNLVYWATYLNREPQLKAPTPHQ
Sequence (P18508 39-466 partner): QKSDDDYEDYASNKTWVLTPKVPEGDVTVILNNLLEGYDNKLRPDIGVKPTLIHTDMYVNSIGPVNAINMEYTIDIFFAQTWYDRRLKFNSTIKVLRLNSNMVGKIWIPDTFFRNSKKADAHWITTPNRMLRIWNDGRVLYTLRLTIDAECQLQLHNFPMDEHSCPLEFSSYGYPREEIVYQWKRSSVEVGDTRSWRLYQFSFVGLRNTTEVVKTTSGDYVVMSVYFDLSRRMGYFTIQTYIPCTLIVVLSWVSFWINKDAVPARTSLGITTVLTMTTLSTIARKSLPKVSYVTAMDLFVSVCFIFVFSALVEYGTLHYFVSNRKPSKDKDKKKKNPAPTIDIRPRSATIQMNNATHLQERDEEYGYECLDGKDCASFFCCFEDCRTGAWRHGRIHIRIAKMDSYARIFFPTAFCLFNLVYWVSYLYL

{"compound": "CCNC(=O)/C(C)=C/[C@@H]1CC[C@@H](C)[C@H]2CCC(C)=C12 [VA-EA]", "tgt": "α1β3γ2S receptors (Rattus norvegicus, UniProt P62813+P63079)", "Hill-coefficient (nH)": 1.3}
{"compound": "CNC(=O)/C(C)=C/[C@@H]1CC[C@@H](C)[C@H]2CCC(C)=C12 [VA-MA]", "tgt": "α1β3γ2S receptors (Rattus norvegicus, UniProt P62813+P63079)", "Hill-coefficient (nH)": 1.5}
{"compound": "CC1=C2[C@H](/C=C(\\C)C(N)=O)CC[C@@H](C)[C@H]2CC1 [VA-A]", "tgt": "α1β3γ2S receptors (Rattus norvegicus, UniProt P62813+P63079)", "Hill-coefficient (nH)": 1.5}
{"compound": "CC1=C2[C@H](/C=C(\\C)c3nnn[nH]3)CC[C@@H](C)[C@H]2CC1 [VA-TET]", "tgt": "α1β3γ2S receptors (Rattus norvegicus, UniProt P62813+P63079)", "Hill-coefficient (nH)": 1.1}
{"compound": "CC1=C2[C@H](/C=C(\\C)C(=O)N(C)C)CC[C@@H](C)[C@H]2CC1 [VA-DMA]", "tgt": "α1β3γ2S receptors (Rattus norvegicus, UniProt P62813+P63079)", "Hill-coefficient (nH)": 1.4}
{"compound": "CC1=C2[C@H](/C=C(\\C)C#N)CC[C@@H](C)[C@H]2CC1 [VA-CN]", "tgt": "α1β3γ2S receptors (Rattus norvegicus, UniProt P62813+P63079)", "Hill-coefficient (nH)": 2.1}
{"compound": "CCN(CC)C(=O)/C(C)=C/[C@@H]1CC[C@@H](C)[C@H]2CCC(C)=C12 [VA-DEA]", "tgt": "α1β3γ2S receptors (Rattus norvegicus, UniProt P62813+P63079)", "Hill-coefficient (nH)": 1.9}

###

system: locomotor activity; test: Open-field test; type: in vivo, male C57BL/6N mice; conditions: 30 mg/kg i.p., 30 min before test, 10 min test; control 38.3 ± 1.5 m
Please assign False whenever total distance covered in the open field test is at or above 30 m, and True whenever it is below.

{"molecule": "CC1=C2[C@H](/C=C(\\C)C(N)=O)CC[C@@H](C)[C@H]2CC1 [VA-A]", "label_class": "True"}
{"molecule": "CC1=C2[C@H](/C=C(\\C)C#N)CC[C@@H](C)[C@H]2CC1 [VA-CN]", "label_class": "False"}
{"molecule": "CC1=C2[C@H](/C=C(\\C)C(=O)O)CC[C@@H](C)[C@H]2CC1 [VA, Valerenic acid, reference compound]", "label_class": "False"}
{"molecule": "CC1=C2[C@H](/C=C(\\C)c3nnn[nH]3)CC[C@@H](C)[C@H]2CC1 [VA-TET]", "label_class": "True"}

###

# reported Hill-coefficient (nH); entries follow
biological target: α1β1γ2S receptors (Rattus norvegicus, UniProt P15431+P62813); assay: IGABA enhancement; format: cell-based; details: α1β1γ2S, GABA EC3-7, Xenopus oocytes
Sequence (P15431 26-474): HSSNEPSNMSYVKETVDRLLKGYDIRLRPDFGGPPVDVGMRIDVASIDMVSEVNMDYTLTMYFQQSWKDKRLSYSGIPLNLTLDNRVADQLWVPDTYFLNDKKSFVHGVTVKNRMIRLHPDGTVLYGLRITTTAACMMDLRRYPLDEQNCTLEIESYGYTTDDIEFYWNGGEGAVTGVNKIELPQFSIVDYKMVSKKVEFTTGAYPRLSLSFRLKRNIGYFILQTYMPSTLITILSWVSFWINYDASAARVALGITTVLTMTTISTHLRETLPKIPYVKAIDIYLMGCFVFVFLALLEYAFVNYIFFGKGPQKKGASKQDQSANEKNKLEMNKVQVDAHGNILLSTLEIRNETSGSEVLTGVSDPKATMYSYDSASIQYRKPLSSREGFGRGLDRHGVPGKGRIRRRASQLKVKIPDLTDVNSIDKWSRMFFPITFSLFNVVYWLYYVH
Sequence (P62813 28-455): as the sequence (P62813 28-455) above
Sequence (P18508 39-466 partner): as the sequence (P18508 39-466 partner) above

{"compound": "CC1=C2[C@H](/C=C(\\C)C(N)=O)CC[C@@H](C)[C@H]2CC1 [VA-A]", "Hill-coefficient (nH)": "1.8 ± 0.6"}
{"compound": "CNC(=O)/C(C)=C/[C@@H]1CC[C@@H](C)[C@H]2CCC(C)=C12 [VA-MA]", "Hill-coefficient (nH)": "1.6 ± 0.3"}
{"compound": "CC1=C2[C@H](/C=C(\\C)C(=O)N(C)C)CC[C@@H](C)[C@H]2CC1 [VA-DMA]", "Hill-coefficient (nH)": "1.7 ± 0.5"}
{"compound": "CC1=C2[C@H](/C=C(\\C)c3nnn[nH]3)CC[C@@H](C)[C@H]2CC1 [VA-TET]", "Hill-coefficient (nH)": "1.8 ± 0.6"}
{"compound": "CCN(CC)C(=O)/C(C)=C/[C@@H]1CC[C@@H](C)[C@H]2CCC(C)=C12 [VA-DEA]", "Hill-coefficient (nH)": "1.8 ± 0.3"}

Reference source for all entries: paper PMC4885513
